Measured Target: enzymatically active free PSA (Homo sapiens, UniProt P07288)
Construct: required for 50% cleavage of the noted oligopeptides with enzymatically active free PSA
Sequence (P07288 25-261): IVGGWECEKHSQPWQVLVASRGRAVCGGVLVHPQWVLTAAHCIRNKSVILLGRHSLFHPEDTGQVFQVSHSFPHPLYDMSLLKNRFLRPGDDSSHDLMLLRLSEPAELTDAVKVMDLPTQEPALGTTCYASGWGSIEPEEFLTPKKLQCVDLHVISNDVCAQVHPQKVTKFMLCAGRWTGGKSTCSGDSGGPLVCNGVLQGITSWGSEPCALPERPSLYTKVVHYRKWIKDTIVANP
Measurement Protocol: Recognition (cleavage) of oligopeptide-doxorubicin conjugates by free PSA, HPLC
Assay type: biochemical
Condition Set: DOX conjugate; PSA digestion buffer pH7.4, 140 mM NaCl; molar ratio to PSA 100 to 1
Non-standard residues stand in square brackets, D forms with d. Residues, ends and D or L forms follow the SMILES beside them. *: point of attachment. Doxorubicin(3'-N) = COc1cccc2c1C(=O)c1c(O)c3c(c(O)c1C2=O)C[C@@](O)(C(=O)CO)C[C@@H]3O[C@H]1C[C@H](N*)[C@H](O)[C@H](C)O1; Decanoyl(3,6,9-trioxa) = COCCOCCOCC(=O)*; hArg = N=C(N)NCCCC[C@H](N)C(=O)O; Glycolyl = O=C(CO)*
Listing of entries alongside the reported Time to 50% Substrate Cleavage by York PSA.
Test Readout: Time to 50% Substrate Cleavage by York PSA

Molecule	Measured
COCCOCCOCC(=O)N[C@@H](CO)C(=O)N[C@@H](CCCCNC(=N)N)C(=O)N[C@@H](Cc1ccc(O)cc1)C(=O)N[C@@H](CCC(N)=O)C(=O)N[C@@H](CO)C(=O)N[C@@H](CC(C)C)C(=O)N[C@H]1C[C@H](O[C@H]2C[C@](O)(C(=O)CO)Cc3c(O)c4c(c(O)c32)C(=O)c2c(OC)cccc2C4=O)O[C@@H](C)[C@H]1O [PEG(2)-SHomoRYQ-SL-DOX (3′), PEG(2)-SerhArgTyrGln-SerLeu-DOX (3′)] ({Decanoyl(3,6,9-trioxa)}-S[hArg]YQSL-{Doxorubicin(3'-N)})	60 min
COc1cccc2c1C(=O)c1c(O)c3c(c(O)c1C2=O)C[C@@](O)(C(=O)CO)C[C@@H]3O[C@H]1C[C@H](NC(=O)[C@H](CC(C)C)NC(=O)[C@H](CO)NC(=O)[C@H](CCC(N)=O)NC(=O)[C@H](Cc2ccc(O)cc2)NC(=O)[C@H](CO)NC(=O)[C@H](CO)NC(=O)[C@H](CCCCNC(=N)N)NC(=O)CO)[C@H](O)[C@H](C)O1 [2-hydroxyacetyl-HomoRSSYQ-SL-DOX (3′)] (Glycolyl-[hArg]SSYQSL-{Doxorubicin(3'-N)})	16 min
